test system: Glycopeptide intermediate-resistant (GISA) S. aureus Mu-50 (ATCC 700695); assay: MIC determination on glycopeptide intermediate-resistant S. aureus; format: cell-based; conditions: Staphylococcus aureus, ATCC700695, read-out: MIC S. aureus GISA
Endpoint Name: MIC

Example cases with answers are listed next.
C#CCn1cnc2c(N[C@@H]3C[C@H]3c3ccc(F)c(F)c3)nc(SCCC)nc21	> 50 µM
CCCSc1nc(N[C@@H]2C[C@H]2c2ccc(F)c(F)c2)c2ncn(CC)c2n1	> 50 µM
CCCSc1nc(N[C@@H]2C[C@H]2c2ccc(F)c(F)c2)c2ncn(C)c2n1	25 to 30 µM

Switching to the query record.
Q: Could you share which MIC value was measured for C=CCn1cnc2c(N[C@@H]3C[C@H]3c3ccc(F)c(F)c3)nc(SCCC)nc21 ?
A: > 50 µM
